# subject.of.test: PI3Kγ (p110γ) Recombinant Human Protein (Homo sapiens (Human), UniProt P48736)
# Sequence (P48736 whole entry): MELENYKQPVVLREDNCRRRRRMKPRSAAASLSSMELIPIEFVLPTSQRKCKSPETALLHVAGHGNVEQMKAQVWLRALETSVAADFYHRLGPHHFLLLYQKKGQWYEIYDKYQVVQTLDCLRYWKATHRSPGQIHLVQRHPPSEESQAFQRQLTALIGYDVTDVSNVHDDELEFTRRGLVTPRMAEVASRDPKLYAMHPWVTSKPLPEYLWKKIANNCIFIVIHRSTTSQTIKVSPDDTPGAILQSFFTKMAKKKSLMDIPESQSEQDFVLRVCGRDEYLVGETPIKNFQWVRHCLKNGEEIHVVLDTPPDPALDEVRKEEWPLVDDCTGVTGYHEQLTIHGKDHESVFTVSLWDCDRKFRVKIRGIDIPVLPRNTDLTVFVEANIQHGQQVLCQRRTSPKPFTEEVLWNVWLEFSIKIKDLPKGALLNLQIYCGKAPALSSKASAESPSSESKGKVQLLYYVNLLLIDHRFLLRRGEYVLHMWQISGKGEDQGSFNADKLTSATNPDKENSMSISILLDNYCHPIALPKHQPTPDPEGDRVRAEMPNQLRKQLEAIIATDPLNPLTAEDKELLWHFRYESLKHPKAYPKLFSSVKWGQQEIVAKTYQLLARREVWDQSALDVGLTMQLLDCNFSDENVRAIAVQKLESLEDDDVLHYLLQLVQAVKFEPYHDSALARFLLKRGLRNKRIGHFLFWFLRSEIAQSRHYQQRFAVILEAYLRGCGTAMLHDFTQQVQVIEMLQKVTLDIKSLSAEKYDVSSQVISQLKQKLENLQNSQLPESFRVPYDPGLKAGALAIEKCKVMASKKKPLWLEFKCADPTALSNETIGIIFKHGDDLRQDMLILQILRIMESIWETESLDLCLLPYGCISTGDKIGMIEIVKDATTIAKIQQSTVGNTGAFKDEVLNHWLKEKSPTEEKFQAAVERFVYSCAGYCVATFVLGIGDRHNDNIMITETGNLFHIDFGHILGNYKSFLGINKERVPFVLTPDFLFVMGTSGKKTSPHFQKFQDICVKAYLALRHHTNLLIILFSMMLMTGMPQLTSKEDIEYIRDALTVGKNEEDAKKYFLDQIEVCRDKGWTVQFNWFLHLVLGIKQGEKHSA
# method.description: PI3K-γ Scintillation Proximity Assay
# conditions: read-out: PI3K-gamma SPA IC50
# Excerpt: Example B. PI3K-γ Scintillation Proximity Assay [γ-^33P]ATP (10 mCi/mL) and Wheat Germ Agglutinin (WGA) YSi SPA Scintillation Beads was purchased from Perkin-Elmer (Waltham, Mass.). Lipid kinase substrate, D-myo-Phosphatidylinositol 4,5-bisphosphate (PtdIns(4,5)P2)D (+)-sn-1,2-di-O-octanoylglyceryl, 3-O-phospho linked (PIP2), CAS 204858-53-7, was purchased from Echelon Biosciences (Salt Lake City, Utah). […]
Structures can show the parent of a compound that is named as a salt.
In this section, each of the compounds is paired with its reported IC50.

[[record]]
compound = "Cc1[nH]c(-c2cc(-c3cncc(N4CCOCC4)c3)ccn2)nc1C(=O)N1CC(NC(=O)OC(C)(C)C)C1"
result_type = "IC50"
assay_result = "≤ 100 nM"

[[record]]
compound = "c1cc(-c2cncc(N3CCOCC3)c2)cc(-c2ncc(C3CCC3)[nH]2)n1 [Example 103, trifluoroacetate salt]"
result_type = "IC50"
assay_result = "≤ 100 nM"

[[record]]
compound = "Cc1nc(-c2cc(-c3cncc(C(=O)N[C@@H](C)c4ccccc4)c3)ccn2)[nH]c1C [Example 195, trifluoroacetate salt]"
result_type = "IC50"
assay_result = "≤ 500 nM"

[[record]]
compound = "Cc1nc(-c2cc(-c3cncc(C(=O)N4CCC(C#N)C4)c3)ccn2)[nH]c1C (racemic) [Example 183, trifluoroacetate salt]"
result_type = "IC50"
assay_result = "≤ 50 nM"

[[record]]
compound = "COc1cncc(-c2ccnc(-c3cnc(NCC4CCC4)[nH]3)c2)c1 [Example 65, trifluoroacetate salt]"
result_type = "IC50"
assay_result = "≤ 500 nM"

[[record]]
compound = "CC(=O)N1CCC=C(c2ccnc(-c3nc(C)c(C)[nH]3)c2)C1 [Example 219, trifluoroacetate salt]"
result_type = "IC50"
assay_result = "> 500 nM"


Now consider the entry below.
Input line: Input Cc1nc(-c2cc(-c3cncc(C4CCN(S(C)(=O)=O)C4)c3)ccn2)[nH]c1C (racemic) , output reported IC50.
Output line: ≤ 100 nM

* * *

Listed here: items and their measured IC50.
# subject.of.test: PI3Kγ (p110γ) Recombinant Human Protein (Homo sapiens (Human), UniProt P48736)
# method.description: PI3K-γ Scintillation Proximity Assay
# conditions: read-out: PI3K-gamma SPA IC50
Counter-ions that a name gives are not always drawn.

See these solved cases before continuing.
[[record]]
molecule = "Clc1ccc(Cn2cc(-c3ccnc(-c4nc(C5CCNC5)c[nH]4)c3)cn2)cc1 (racemic) [Example 306, Trifluoroacetate Salt]"
assay_result = "> 500 nM"

[[record]]
molecule = "COc1cncc(-c2ccnc(-c3ncc(-c4ccccc4)[nH]3)c2)c1 [Example 19, trifluoroacetate salt]"
assay_result = "≤ 50 nM"

[[record]]
molecule = "O=S(=O)(C1CCCC1)n1cc(-c2ccnc(-c3ncc(-c4ccccc4)[nH]3)c2)cn1 [Example 54, trifluoroacetate salt]"
assay_result = "≤ 100 nM"


Input line: Enter IC50 (test system PI3Kγ (p110γ) Recombinant Human Protein (Homo sapiens (Human), UniProt P48736)) for N#Cc1cccc(C(=O)Nc2cncc(-c3ccnc(-c4ncc(-c5ccccc5)[nH]4)c3)c2)c1
Output line: ≤ 500 nM

Input line: GET IC50 | system: PI3Kγ (p110γ) Recombinant Human Protein (Homo sapiens (Human), UniProt P48736) | item: Cc1nc(-c2cc(-c3cncc(C(=O)N4CCC5(CCOCC5)CC4)c3)ccn2)[nH]c1C [Example 156, trifluoroacetate salt]
Output line: ≤ 50 nM

* * *

Parameter: IC50. Scope: all listed entries.
# subject.of.test: PI3Kδ (p110δ/p85α) Recombinant Human Protein (Homo sapiens (Human), UniProt O00329)
# Sequence (O00329 whole entry): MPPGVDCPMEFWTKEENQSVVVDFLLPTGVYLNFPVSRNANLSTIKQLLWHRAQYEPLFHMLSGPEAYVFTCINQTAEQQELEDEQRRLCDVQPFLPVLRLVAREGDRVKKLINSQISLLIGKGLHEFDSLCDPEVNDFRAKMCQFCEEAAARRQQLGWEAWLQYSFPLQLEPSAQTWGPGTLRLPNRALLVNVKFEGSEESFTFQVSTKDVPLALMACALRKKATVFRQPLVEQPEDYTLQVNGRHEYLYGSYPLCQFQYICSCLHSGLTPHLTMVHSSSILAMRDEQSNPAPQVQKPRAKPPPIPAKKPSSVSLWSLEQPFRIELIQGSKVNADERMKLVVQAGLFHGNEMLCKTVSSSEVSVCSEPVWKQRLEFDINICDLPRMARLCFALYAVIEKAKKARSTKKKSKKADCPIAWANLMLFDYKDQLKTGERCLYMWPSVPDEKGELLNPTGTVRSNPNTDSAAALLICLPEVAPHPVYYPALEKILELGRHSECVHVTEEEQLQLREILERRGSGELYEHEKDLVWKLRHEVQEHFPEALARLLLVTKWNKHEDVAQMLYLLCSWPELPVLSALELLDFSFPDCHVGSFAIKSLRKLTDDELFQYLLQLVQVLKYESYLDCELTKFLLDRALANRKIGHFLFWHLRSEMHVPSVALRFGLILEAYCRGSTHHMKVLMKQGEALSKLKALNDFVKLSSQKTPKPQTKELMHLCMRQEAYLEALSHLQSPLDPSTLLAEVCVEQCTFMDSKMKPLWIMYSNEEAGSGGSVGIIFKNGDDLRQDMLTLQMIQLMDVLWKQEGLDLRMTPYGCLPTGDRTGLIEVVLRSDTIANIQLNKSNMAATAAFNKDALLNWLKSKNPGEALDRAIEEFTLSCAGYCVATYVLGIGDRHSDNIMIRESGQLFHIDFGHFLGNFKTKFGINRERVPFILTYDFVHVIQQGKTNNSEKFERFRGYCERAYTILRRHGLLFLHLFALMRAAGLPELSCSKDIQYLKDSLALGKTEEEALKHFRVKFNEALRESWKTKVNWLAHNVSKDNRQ
# Sequence (P27986 whole entry partner): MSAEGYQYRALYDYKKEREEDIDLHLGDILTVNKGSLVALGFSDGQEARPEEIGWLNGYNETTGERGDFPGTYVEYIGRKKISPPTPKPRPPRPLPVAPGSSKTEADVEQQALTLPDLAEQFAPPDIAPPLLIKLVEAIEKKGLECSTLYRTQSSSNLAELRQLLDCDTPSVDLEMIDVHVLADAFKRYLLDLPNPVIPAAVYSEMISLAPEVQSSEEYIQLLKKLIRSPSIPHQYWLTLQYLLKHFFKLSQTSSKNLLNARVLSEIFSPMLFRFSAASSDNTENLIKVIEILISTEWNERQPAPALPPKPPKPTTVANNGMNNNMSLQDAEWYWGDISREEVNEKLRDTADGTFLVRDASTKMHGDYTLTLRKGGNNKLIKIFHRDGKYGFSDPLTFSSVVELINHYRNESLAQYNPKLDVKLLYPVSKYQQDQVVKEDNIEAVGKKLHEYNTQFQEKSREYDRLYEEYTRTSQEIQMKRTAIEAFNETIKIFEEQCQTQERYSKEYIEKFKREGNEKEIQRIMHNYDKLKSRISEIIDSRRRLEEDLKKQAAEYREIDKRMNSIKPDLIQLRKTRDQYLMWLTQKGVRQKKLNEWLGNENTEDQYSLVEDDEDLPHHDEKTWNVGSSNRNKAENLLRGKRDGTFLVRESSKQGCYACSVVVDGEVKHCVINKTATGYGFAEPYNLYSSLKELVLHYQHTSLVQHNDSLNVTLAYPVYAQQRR
# method.description: PI3Kδ Scintillation Proximity Assay
# conditions: read-out: PI3K-delta SPA IC50
Where a name gives a salt, the structure may show the parent alone.

Known IC50 results, listed for orientation:
[[record]]
compound = "Cc1nc(-c2cc(-c3cncc(C(=O)N4CCC(C(F)(F)F)C4)c3)ccn2)[nH]c1C (racemic) [Example 178, trifluoroacetate salt]"
result_type = "IC50"
assay_result = "≤ 50 nM"

[[record]]
compound = "N#CCCn1cc(-c2ccnc(-c3ncc(-c4ccccc4)[nH]3)c2)cn1 [Example 52, trifluoroacetate salt]"
result_type = "IC50"
assay_result = "≤ 500 nM"

[[record]]
compound = "CC(=O)N1CC=C(c2ccnc(-c3nc(C)c(C)[nH]3)c2)CC1 [Example 217, trifluoroacetate salt]"
result_type = "IC50"
assay_result = "> 500 nM"

[[record]]
compound = "CCc1cnc(-c2cc(-c3cncc(N4CCOCC4)c3)ccn2)[nH]1 [Example 100, trifluoroacetate salt]"
result_type = "IC50"
assay_result = "≤ 500 nM"

[[record]]
compound = "c1ccc(-c2cnc(-c3cc(-c4cnn(C5CCOC5)c4)ccn3)[nH]2)cc1 (racemic) [Example 60, trifluoroacetate salt]"
result_type = "IC50"
assay_result = "≤ 500 nM"


Input line: Supply measured IC50 of Cc1[nH]c(-c2cc(-c3cncc(N4CCOCC4)c3)ccn2)nc1CNC1CCOCC1 in your reply.
Output line: ≤ 100 nM

Input line: Return reported IC50. Input compound: Cc1nc(-c2cc(-c3cncc(C(=O)N4CCCCC4C)c3)ccn2)[nH]c1C (racemic) [Example 190, trifluoroacetate salt]
Output line: ≤ 100 nM

* * *

# subject.of.test: PI3Kδ (p110δ/p85α) Recombinant Human Protein (Homo sapiens (Human))
# method.description: PI3Kδ Scintillation Proximity Assay
# conditions: read-out: PI3K-delta SPA IC50
Where a name gives a salt, the structure may show the parent alone.
Documented IC50 across a set of compounds

[[record]]
compound = "Cc1nc(-c2cc(-c3cncc(N4CC[C@@H](O)C4)c3)ccn2)[nH]c1C [Example 231]"
assay_result = "≤ 0.1 µM"


Input line: Supply IC50 measured with PI3Kδ (p110δ/p85α) Recombinant Human Protein (Homo sapiens (Human)) for COC(=O)c1ccc(Cn2cc(-c3ccnc(-c4ncc(-c5ccccc5)[nH]4)c3)cn2)cc1 [Example 32, trifluoroacetate salt] .
Output line: > 0.5 µM

Input line: Give IC50 for this entry on PI3Kδ (p110δ/p85α) Recombinant Human Protein (Homo sapiens (Human)): Cc1nc(-c2cc(-c3cncc(C(=O)N(C)Cc4ccccc4)c3)ccn2)[nH]c1C [Example 193, trifluoroacetate salt]
Output line: ≤ 0.05 µM

Input line: Output reported IC50 of the compound O=S(=O)(C1CC1)n1cc(-c2ccnc(-c3ncc(-c4ccccc4)[nH]3)c2)cn1 [Example 46, trifluoroacetate salt] on PI3Kδ (p110δ/p85α) Recombinant Human Protein (Homo sapiens (Human)).
Output line: ≤ 0.5 µM

Input line: Jot down IC50 (PI3Kδ (p110δ/p85α) Recombinant Human Protein (Homo sapiens (Human))) of COc1cncc(-c2ccnc(-c3nnc(Nc4ccccc4)[nH]3)c2)c1 [Example 70, trifluoroacetate salt] .
Output line: ≤ 0.5 µM

Input line: Quote IC50 with test system PI3Kδ (p110δ/p85α) Recombinant Human Protein (Homo sapiens (Human)) for Cc1nc(-c2cc(-c3cncc(C(=O)N4CCN(C(N)=O)CC4)c3)ccn2)[nH]c1C [Example 150]
Output line: ≤ 0.1 µM

Input line: Enter measured IC50, system PI3Kδ (p110δ/p85α) Recombinant Human Protein (Homo sapiens (Human)), for the compound shown: CC(=O)N1CCN(C(=O)c2cncc(-c3ccnc(-c4nc(C)c(C)[nH]4)c3)c2)CC1 [Example 159, trifluoroacetate salt]
Output line: ≤ 0.1 µM

Input line: Fill in IC50 for Cc1nc(-c2cc(-c3cncc(C(=O)N4CC[C@H]5CCCC[C@@H]5C4)c3)ccn2)[nH]c1C [Example 187, trifluoroacetate salt] tested with PI3Kδ (p110δ/p85α) Recombinant Human Protein (Homo sapiens (Human)).
Output line: ≤ 0.1 µM

Input line: Look up and report measured IC50 (PI3Kδ (p110δ/p85α) Recombinant Human Protein (Homo sapiens (Human))) for the following compound: Cc1nc(-c2cc(-c3cncc(C(=O)N4CCC5(CCOCC5)CC4)c3)ccn2)[nH]c1C [Example 156, trifluoroacetate salt]
Output line: ≤ 0.05 µM

Input line: Name the recorded IC50 of c1cc(-c2cncc(N3CCOCC3)c2)cc(-c2ncc(C3CC3)[nH]2)n1 [Example 102, trifluoroacetate salt] , assay system PI3Kδ (p110δ/p85α) Recombinant Human Protein (Homo sapiens (Human)).
Output line: ≤ 0.05 µM

Input line: Please report IC50 with PI3Kδ (p110δ/p85α) Recombinant Human Protein (Homo sapiens (Human)) for item Cc1nc(-c2cc(-c3cncc(C(=O)N4CC(C)(C)C4)c3)ccn2)[nH]c1C [Example 185, trifluoroacetate salt] .
Output line: ≤ 0.1 µM

Input line: Enter IC50 (test system PI3Kδ (p110δ/p85α) Recombinant Human Protein (Homo sapiens (Human))) for Cc1[nH]c(-c2cc(-c3cncc(N4CCOCC4)c3)ccn2)nc1C(=O)N[C@@H](C)c1ccccc1 [Example 273, trifluoroacetate salt]
Output line: ≤ 0.05 µM

Input line: GET IC50 | system: PI3Kδ (p110δ/p85α) Recombinant Human Protein (Homo sapiens (Human)) | item: Cc1nc(-c2cc(-c3cncc(C(=O)N4CCCC(O)C4)c3)ccn2)[nH]c1C (racemic) [Example 154]
Output line: ≤ 0.1 µM

Input line: Lab note: PI3Kδ (p110δ/p85α) Recombinant Human Protein (Homo sapiens (Human)) assay, enter IC50 for Cc1[nH]c(-c2cc(-c3cncc(N4CCOCC4)c3)ccn2)nc1CN(C)C [Example 289] here
Output line: ≤ 0.05 µM

Data provenance is patent US11352340B2.
